- Subject of test: Peroxisome proliferator-activated receptor gamma/Nuclear receptor coactivator 2 (Homo sapiens, UniProt P37231)
- Sequence (P37231 whole entry): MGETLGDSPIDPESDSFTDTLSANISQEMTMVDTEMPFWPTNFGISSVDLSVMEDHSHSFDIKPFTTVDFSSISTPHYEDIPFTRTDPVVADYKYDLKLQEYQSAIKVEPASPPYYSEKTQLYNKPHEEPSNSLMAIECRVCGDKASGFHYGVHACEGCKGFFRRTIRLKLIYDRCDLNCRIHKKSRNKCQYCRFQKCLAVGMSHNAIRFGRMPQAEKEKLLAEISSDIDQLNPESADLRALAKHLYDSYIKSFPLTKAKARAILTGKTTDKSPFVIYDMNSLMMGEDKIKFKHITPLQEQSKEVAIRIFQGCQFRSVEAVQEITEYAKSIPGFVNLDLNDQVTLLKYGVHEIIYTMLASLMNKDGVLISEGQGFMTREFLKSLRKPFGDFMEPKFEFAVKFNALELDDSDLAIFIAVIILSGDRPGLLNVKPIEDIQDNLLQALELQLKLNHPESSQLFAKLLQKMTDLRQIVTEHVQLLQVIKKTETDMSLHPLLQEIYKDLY
- Sequence (Q15596 whole entry, further chain): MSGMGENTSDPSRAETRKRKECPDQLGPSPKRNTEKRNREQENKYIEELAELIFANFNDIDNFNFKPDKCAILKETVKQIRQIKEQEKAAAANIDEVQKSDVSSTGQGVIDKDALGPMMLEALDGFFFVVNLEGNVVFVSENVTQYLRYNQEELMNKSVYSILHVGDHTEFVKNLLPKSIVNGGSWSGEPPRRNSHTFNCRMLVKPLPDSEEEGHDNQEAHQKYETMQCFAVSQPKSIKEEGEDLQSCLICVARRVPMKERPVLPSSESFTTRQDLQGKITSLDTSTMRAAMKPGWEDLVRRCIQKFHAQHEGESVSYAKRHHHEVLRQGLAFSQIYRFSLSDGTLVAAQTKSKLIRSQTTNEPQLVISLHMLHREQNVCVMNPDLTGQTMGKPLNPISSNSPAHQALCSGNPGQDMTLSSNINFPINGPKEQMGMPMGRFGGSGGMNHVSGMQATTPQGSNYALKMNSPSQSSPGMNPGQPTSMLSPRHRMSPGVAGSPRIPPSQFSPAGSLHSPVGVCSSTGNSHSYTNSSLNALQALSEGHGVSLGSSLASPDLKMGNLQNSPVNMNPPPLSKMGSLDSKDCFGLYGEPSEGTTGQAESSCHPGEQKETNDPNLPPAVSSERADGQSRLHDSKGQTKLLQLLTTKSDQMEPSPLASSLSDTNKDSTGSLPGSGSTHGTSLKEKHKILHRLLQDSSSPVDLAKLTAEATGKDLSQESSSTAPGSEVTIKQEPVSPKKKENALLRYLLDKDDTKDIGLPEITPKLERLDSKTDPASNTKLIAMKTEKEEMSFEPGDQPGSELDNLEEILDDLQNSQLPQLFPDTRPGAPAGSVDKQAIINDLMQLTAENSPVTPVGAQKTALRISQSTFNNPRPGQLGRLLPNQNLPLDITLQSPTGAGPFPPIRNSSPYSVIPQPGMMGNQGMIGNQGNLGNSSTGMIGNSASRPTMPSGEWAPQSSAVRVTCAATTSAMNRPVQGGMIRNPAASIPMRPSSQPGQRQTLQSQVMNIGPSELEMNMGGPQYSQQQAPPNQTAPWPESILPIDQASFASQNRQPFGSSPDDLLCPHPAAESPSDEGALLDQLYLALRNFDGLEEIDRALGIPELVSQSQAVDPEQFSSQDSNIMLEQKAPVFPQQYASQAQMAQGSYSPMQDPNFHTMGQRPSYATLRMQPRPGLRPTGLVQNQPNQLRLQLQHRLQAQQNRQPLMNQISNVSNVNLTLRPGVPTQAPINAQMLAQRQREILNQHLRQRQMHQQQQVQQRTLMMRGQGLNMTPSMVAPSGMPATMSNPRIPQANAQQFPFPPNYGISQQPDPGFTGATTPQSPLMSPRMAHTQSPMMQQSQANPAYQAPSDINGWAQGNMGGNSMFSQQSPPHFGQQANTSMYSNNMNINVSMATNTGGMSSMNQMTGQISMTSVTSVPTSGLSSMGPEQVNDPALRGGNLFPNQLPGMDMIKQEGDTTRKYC
- Measurement description: TR-FRET dose response biochemical High Throughput Screening assay for agonists of the steroid receptor coactivator 2 (SRC-2) recruitment by the peroxisome proliferator-activated receptor gamma (PPAR gamma): non-selective agonists. [Related pubchem assays: 1297, 1032 ]
- Assay type: functional
Activity calls are given as the source filed them. No stated cut-off is given here; in the data, active = EC50 of 10 µM or less and inactive = more.

{"columns": ["Molecule", "EC50"],
 "data": [
  ["COc1ccc2c(Cl)c(C(N)=O)sc2c1", "16.7 µM (not active)"],
  ["Cn1cc(Cl)c(-c2nnc(S)n2-c2ccccc2)n1", "> 79.4 µM (not active)"],
  ["CCn1c(=O)cc(SCC(=O)Nc2ccc3c(c2)OCCO3)c2ccccc21", "7.21 µM (active)"],
  ["CCN(CC)CCCN1C(=O)C(O)=C(C(=O)c2cc3ccccc3o2)C1c1ccccn1 (centres undefined)", "35.7 µM (not active)"]
]}
